# Test system: Proteus morganii KY 4298
# TEST DETAILS: Antibacterial spectrum, MIC by agar dilution method
# Type: cell-based
# STUDY CONDITIONS: Morganella morganii, KY4298; agar dilution, pH 7.2; read-out: Minimum Inhibitory Concentration
Measured MIC by item
Don't forget the unit after the number, please.

Exam item: Recorded MIC for CC1(O)COC(OC2C(NC(=O)C(O)CCN)CC(N)C(OC3OC(CN)CCC3N)C2O)C(O)C1N (single isomer, unassigned) , please?
Marked response: 0.78 µg/mL

Exam item: Same question for CNCC1CCC(N)C(OC2C(N)CC(NC(=O)C(O)CN)C(OC3OCC(C)(O)C(NC)C3O)C2O)O1 (racemic) [reference compound] please.
Marked response: 0.78 µg/mL

Exam item: Same question for CC1(O)COC(OC2C(NC(=O)C(O)CN)CC(N)C(OC3OC(CN)CCC3N)C2O)C(O)C1N (racemic) please.
Marked response: 1.56 µg/mL

Exam item: Same question for CNCC1CCC(N)C(OC2C(N)CC(NC(=O)C(O)CCN)C(OC3OCC(C)(O)C(NC)C3O)C2O)O1 (single isomer, unassigned) [reference compound] please.
Marked response: 0.78 µg/mL

Exam item: Same question for CNCC1CCC(N)C(OC2C(N)CC(NC(=O)C(O)CCN)C(OC3OCC(C)(O)C(N)C3O)C2O)O1 (single isomer, unassigned) please.
Marked response: 1.56 µg/mL
